system: 786-0 renal; assay: NCI-60 one-dose screen, 48 h (100 = growth as untreated, 0 = no growth, -100 = all killed); conditions: 10 µM unless noted
Compounds without any hit were thinned out: in the full panel of roughly 83,000, 20% have a hit.
observation.type: growth (%)
Numbers only here, please. The scale is %.

Q. Report growth, nothing else, for this molecule: Cc1ccc(C(=O)O)o1
A. 97.1

Q. Query growth for CC(C)Cc1cc(CNC(=O)C2[C@H]3CN(C(=O)c4ccccc4)C[C@@H]23)nn1-c1ccccc1 (stereo partly drawn)
A. 99.4

Q. Specify growth for COc1cccc(NC(=O)Nc2ccc(Nc3ncnc4[nH]c(C)c(C)c34)cc2)c1 and stop.
A. 113

Q. Look up and state reported growth for C=C(C)[C@@H]1CC[C@]2(C(=O)N3CCN(C)CC3)CC[C@]3(C)[C@H](CC[C@@H]4[C@@]5(C)C/C(=C/c6ccco6)C(=O)C(C)(C)[C@@H]5CC[C@]43C)[C@@H]12
A. 71.2

Q. Entry COc1ccc2[nH]c(=O)c(/C=C/C(=O)c3ccccc3OC)cc2c1 needs its growth filled in; supply it.
A. 8.21

Q. Identify measured growth associated with COc1cc2c(Nc3ccc(NC(=O)Nc4ccc(Cl)c(C(F)(F)F)c4)c(Cl)c3)ncnc2cc1OCCCN1CCN(C)CC1
A. 6.31

Q. Name the recorded growth of the item C=CCn1c(SCC(=O)Nc2ccc(C(=O)/C=C/c3cc(OC)c(OC)c(OC)c3)cc2)nnc1-c1ccc(Cl)cc1 in your answer.
A. 15.5

Q. Supply recorded growth for COc1ccc(C2C(c3ccccc3)C(=O)N2c2cc(OC)c(OC)c(OC)c2)cc1I (stereo not drawn) here.
A. 17.4

Q. Report measured growth; entry is Cc1nccc2c3ccc(OCc4cn(-c5ccc(Cl)cc5)nn4)cc3n(CC(C)C)c12
A. 2.68

Q. Return the recorded growth value; entry: O=C1C(Cl)=C(NCCCN(CCCNC2=C(Cl)C(=O)c3ccccc3C2=O)C2=C(Cl)C(=O)c3ccccc3C2=O)C(=O)c2ccccc21
A. 90.5

Q. Query growth for Cc1ccc2nc3nc4ccc[nH]c4cc3c2c1
A. 108

Q. Look up and report measured growth for this entry: Cc1cccc(C)c1NCc1nnc(-c2ccc(O)cc2)o1
A. 102

Q. Fill in reported growth for this entry: CCSc1ccc(C2C(Br)C(=O)N2c2cc(OC)c(OC)c(OC)c2)cc1 (stereo not drawn)
A. 8.1

Q. Return reported growth. Input molecule: O=S(=O)(O)c1ccc(N=NSc2ccc3ccccc3c2)cc1
A. 102

Q. Check the records and state growth for COc1ccc2c(c1)C1(C(=O)N2)C(C#N)=C(c2ccccc2)Nc2c1c(-c1ccccc1)nn2-c1ccccc1 (stereo not drawn)
A. 62.4

Q. Answer with the recorded growth of c1ccc(-c2cn3ccnc3c(-c3ccc4c(c3)ncn4C3CCCCC3)n2)cc1 only.
A. 91.8

Q. Check the records and state growth for COc1cc(NC(=O)Nc2cnc(Nc3ccc(N4CCOCC4)cc3)nc2Oc2ccc(C(F)(F)F)cc2)cc(OC)c1
A. 109

Q. Note growth for the molecule shown: CCCCc1n(Cc2ccc3ccccc3n2)cc[n+]1Cc1ccc2ccccc2c1
A. 20.4

---

test system: OVCAR-4 ovarian; assay: NCI-60 one-dose screen, 48 h (100 = growth as untreated, 0 = no growth, -100 = all killed); settings: 10 µM unless noted
Compounds without any hit were thinned out: in the full panel of roughly 83,000, 20% have a hit.
observation.type: growth (%)
Provide the reading as a plain figure in %.

Q. # return recorded growth for entry NCCCn1c2c(c3cc(-c4ccn[nH]4)ccc3c1=O)C(=O)c1ccccc1-2
A. 50.3

Q. Entry COC(=O)/C=C/c1cc(OC(C)=O)c2c(c1)C(C(=O)OC)C(c1ccc(OC(C)=O)c(OC(C)=O)c1)O2 (centres undefined) needs its growth filled in; supply it.
A. 49.5

Q. Recall and state the measured growth for CCOc1ccc(C2N(c3cc(OC)c(OC)c(OC)c3)C(=O)C2(F)F)cc1 (centres undefined) .
A. 49.6

Q. Using known records, supply growth for CCOC(=O)C(=Cc1c(-c2ccccc2)[nH]c2ccccc12)C(=O)OCC
A. 49.9
